Item-by-item account of z-score
Test: inhibition of PAO1 biofilm formation – strain PAO1, LB-PBS medium, absorbance 600 nm, primary screen (AID 1176); also: test concentration not given here
Conditions: P. aeruginosa PAO1 growth/biofilm, A600, 12 h; higher = more signal
ENDPOINT: z-score

* C=CCN1C(=O)[C@@]2(O[C@@H](CCn3cc([C@H](O)c4ccccc4)nn3)[C@H]([Si](C)(C)c3ccc(OC)cc3)[C@H]2C)c2cc(N3C(=O)c4cccc5cccc3c45)ccc21 | 0.72
* CN1C(=O)C2C(C3CC3)C=C3CN(Cc4cccc(Cl)c4)[C@@H]([C@@H](O)Cc4ccccc4)C3C2C1=O (some centres undefined) | 0.601
* CCOC(=O)C1=C[C@@H](C(C)(C)C)N(S(=O)(=O)c2ccc(C)cc2)[C@H]1c1ccc(C#N)cc1 | 0.16
* C=CCOC(=O)[C@H]1[C@@H]2C(=O)O[C@@H](c3ccccc3)[C@@H](c3ccccc3)N2[C@@H](c2ccc(OCCOC(=O)[C@@H]3C[C@@H]4C(=O)N[C@@H](CCCCNC(C)=O)C(=O)N4[C@@H]3c3cccc(OCCO)c3)cc2)[C@]12C(=O)Nc1ccccc12 | 2.87
* COC(=O)[C@@]1(Cc2ccc(F)cc2)[C@H]2c3cc(C(=O)N4CCCC4)n(Cc4ccccn4)c3C[C@H]2CN1C(=O)c1ccccc1 | 1.03
* O=C1NC(=O)C2C1C=CC(C(O)c1ccc([N+](=O)[O-])cc1)N2Nc1ccccn1 (centres undefined) | 0.586
* CN1C(=O)C2C(C1=O)C1C=C(CCCO)C2C(C2CC2)N1Cc1cccc(OC(F)(F)F)c1 (centres undefined) | 0.559
* O=C1N(Cc2ccccc2)c2ccccc2C[C@@]12COC(c1ccc(OCCCO)cc1)=N2 | 1.39
* CCCCCC1=C2CNC(CC(C)C)(C(=O)OC)C=C2C(C)C1=O (centres undefined) | 0.383
* C=CCOC(=O)[C@H]1[C@@H]2C(=O)O[C@@H](c3ccccc3)[C@@H](c3ccccc3)N2[C@@H](c2ccc(OCCOC(=O)[C@@H]3C[C@@H]4C(=O)N[C@@H](CCCC[N+](C)(C)C)C(=O)N4[C@@H]3c3ccc(O)cc3)cc2)[C@]12C(=O)Nc1ccc(I)cc12 | 1.12
* CCCCC(O)C1C=CC2C(=O)N(c3ccccc3)C(=O)C2N1Nc1ccc(C#N)cc1 (centres undefined) | 0.999
* COC(=O)[C@@]1(Cc2ccc(OC)cc2)[C@H]2c3cc(C(=O)N(C)C)[nH]c3C[C@H]2CN1C(=O)c1ccccc1 | -0.471
* COCC(=C=CC[C@H](O)c1ccccc1OCCO)C[C@H](O)COCc1ccccc1 | -0.566
* NC(=O)N1C(=O)C2C(C1=O)C1C=C(CCCO)C2C(c2ccc(CN3CCCC3)cc2)N1Cc1sc2ccccc2c1Cl (centres undefined) | 0.0721

---

Target: Dickkopf-related protein 1 (Homo sapiens)
Experiment: small molecules binding DKK1 protein – biochemical, small-molecule microarray, 635 nm fluorescence scan, primary screen (AID 1106);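 also: score merges emission near 667 nm with signal to noise over three replicate slides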
Conditions: higher = more signal
Item-by-item account of composite z-score
ENDPOINT: composite z-score

• COCCCNC(=O)[C@@]1(CCC(=O)OC(C)(C)C)COC(c2ccc(OCCCO)cc2)=N1 = -0.0833
• C=CCC(OC(C)=O)[C@@H]1[C@@H](N(Cc2cccc3ccccc23)C(=O)c2ccc(-c3ccccc3)cc2)c2cc(OCCCO)ccc2N1C(=O)Cc1ccc2ccccc2c1 (some centres not stated) = -0.624
• COCCOC(=O)N1C(=O)[C@@]2(c3ccccc31)[C@H](C(=O)N1CCN(c3ncccn3)CC1)[C@H]1C(=O)O[C@H](c3ccccc3)[C@H](c3ccccc3)N1[C@@H]2c1ccccc1OCCO = 0.778
• CCCNC(=O)[C@@]1(c2ccc([N+](=O)[O-])cc2)CC(=O)N(C(C)C)[C@@H]1c1ccc(CO)cc1 = -0.695
• COC(=O)[C@@]1(Cc2ccc(F)cc2)[C@H]2c3cc(C(=O)N4CCCC4)n(Cc4ccccn4)c3C[C@H]2CN1C(=O)c1ccccc1 = -0.398
• CC(C)[Si](C#CCCc1ccccc1)(O[C@H](c1ccccc1)c1cn(Cc2ccccc2)nn1)C(C)C = 0.611
• COc1cc(CO)cc(I)c1O[C@H]1C=C(C(=O)NCCO)C[C@@H](NC2CCCCCC2)[C@@H]1O = 0.772

---

Test: small molecules captured by biotinylated probe aFST – biochemical, small-molecule microarray, fluorescence 635/667, stem cell growth factor project, primary screen (AID 1086);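 also: score merges 667 nm fluorescence with signal-to-noise of each printed compound spot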
Conditions: higher = more signal
ENDPOINT: composite z-score

* CCCC[C@H]1C[C@@H]1[C@@H]1N(C(C)=O)[C@H](c2cccc(OC)c2)CC12CC2 | 0.657
* CCCN1C(=O)[C@@]2(c3ccc([N+](=O)[O-])cc3)CC(=O)N(CC34CC5CC(CC(C5)C3)C4)[C@@H]2c2ccc(CO)cc21 | -0.103
* COC(=O)[C@@]1(Cc2ccc(F)cc2)[C@H]2c3cc(C(=O)N4CCCC4)n(CCc4ccccn4)c3C[C@H]2CN1C(=O)c1ccccc1 | 0.858
* CCCCCCc1nc(Cc2cc(OC)c(OC)c(OC)c2)cc2c1[Si](C(C)C)(C(C)C)O[C@H]2c1ccccc1 | 0.0506
* CC(=O)c1ccc(C(O)C2C=CC3C(=O)N(c4ccccc4)C(=O)C3N2Nc2ccc(C(C)C)cc2)cc1 (stereo not given) | 1.51
* COc1ccc([Si](C)(C)[C@H]2[C@H](CC(=O)N3Cc4ccccc4C[C@H]3CO)O[C@@]3(C(=O)N(C)c4c(Br)cc(C)cc43)[C@@H]2C)cc1 | 0.334
* Cc1ccc(S[C@]2(C(=O)NCCCN(C)C)CC(=O)N(Cc3ccccc3C(F)(F)F)[C@@H]2c2ccc(CO)cc2I)cc1 | 0.216
* CN(C)CCCC[C@@H]1NC(=O)[C@@H]2C[C@H](C(=O)NCCCCCCNC(=O)CS)[C@H](c3ccc(O)cc3)N2C1=O | -0.114
* CC(C)OC(=O)CC(=O)CC(O)c1cccc([N+](=O)[O-])c1 (stereo not given) | 0.815
* O=C(NCCN1CCOCC1)[C@@H]1c2ccccc2C(=O)N(Cc2ccc(OC(F)(F)F)cc2)[C@H]1c1ccc(CO)cc1 | -0.236
* CC(C)=CCCC=C(C)C(O)C1C=CC2C(=O)N(c3ccccc3)C(=O)C2N1Nc1ccc(C#N)cc1 (stereo not given) | 0.257
* COc1ccc(C(=O)Nc2ccc(CN3C(=O)[C@@]4(O[C@@H](CCn5cc(CCO)nn5)[C@H]([Si](C)(C)c5ccc(OC)cc5)[C@H]4C)c4ccccc43)cc2)cc1 | 0.859
* COCCCNC(=O)[C@@]1(CCS(=O)(=O)c2ccccc2)COC(c2ccc(OCCCO)cc2)=N1 | 1.1
* C#CCN1[C@@H](Cc2ccccc2)C(=O)O[C@H](Cc2ccccc2)[C@@H]1/C=C/C1CC1 | 0.426
* O=C1O[C@@H](c2ccccc2)[C@@H](c2ccccc2)N2[C@@H](c3ccc(OCCO)cc3)[C@]3(C(=O)Nc4ccc(C#CCCO)cc43)[C@@H](C(=O)O)[C@H]12 | 1.9

---

Test: COS7 lysate on small-molecule microarray, probe aHis, 635 nm (AID 1123);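 also: z-score combines 667nm fluorescence intensity with signal-to-noise per printed compound spot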
Details: COS7 cell lysate, fluorescence, higher = more signal
Decide using composite z-score: a value greater than or equal to 1 is t, a smaller one is f.

* NC(=O)NCC#Cc1ccc2c(c1)[C@]1(C(=O)N2)[C@H](c2ccc(OCCO)cc2)N2[C@H](c3ccccc3)[C@H](c3ccccc3)OC(=O)[C@H]2[C@@H]1C(=O)NC[C@H](O)c1ccccc1 | f
* CCOC(=O)C1=CC[C@@H](c2ccc(OC)cc2)N(S(=O)(=O)c2ccc(C)cc2)[C@H]1CC | t
* C[N+](C)(C)CCCC[C@@H]1NC(=O)[C@@H]2C[C@H](C(=O)NCc3ccc(F)cc3)[C@H](c3ccc(O)cc3)N2C1=O | f
* C[C@@H]1NC(=O)C([C@@H](C)OCc2ccccc2)NC(=O)[C@@]23C(=O)N[C@@H](Cc4ccccc4)C2[C@H](C)[C@@]2(C)O[C@H]2C3/C=C/C/C=C\CNC1=O (stereo not given in full) | f
* O=C1O[C@@H](c2ccccc2)[C@@H](c2ccccc2)N2[C@@H](c3ccc(OCCO)cc3)[C@]3(C(=O)Nc4ccc(C#CCCO)cc43)[C@@H](C(=O)O)[C@H]12 | t
* COC(=O)[C@@]1(Cc2ccc(F)cc2)[C@H]2c3cc(C(=O)N(C)C)n(CCc4ccc(O)c(O)c4)c3C[C@H]2CN1C(=O)c1ccccc1 | t
* COC(=O)[C@@]1(Cc2ccccc2)[C@H]2c3cc(C(=O)N(C)C)n(Cc4ccc(S(C)(=O)=O)cc4)c3C[C@H]2CN1C(=O)c1ccccc1 | t
* Cc1ccc(S[C@]2(C(=O)NCCCN(C)C)CC(=O)N(C3Cc4ccccc4C3)[C@@H]2c2ccc(CO)cc2I)cc1 | f
* CCCCCC1=C2CNC(CC(C)C)(C(=O)OC)C=C2C(C)C1=O (stereo not given) | t
* O=C1N(Cc2ccccc2)c2ccccc2C[C@@]12COC(c1ccc(OCCCO)cc1)=N2 | t
* CCCCC(=C=CC[C@H](O)c1ccc(CO)o1)CCO | f
* NC(=O)N1C(=O)C2C(C1=O)C1C=C(CCCO)C2C(C2CC2)N1Cc1sc2ccccc2c1Cl (stereo not given) | t
* COc1ccc([Si](C)(C)[C@H]2[C@H](CCO)O[C@@]3(C(=O)N(Cc4cccc(N(C=O)c5ccccc5)c4)c4ccccc43)[C@@H]2C)cc1 | t
* C=C(C)[C@@H]1CC=C(C(O)C2C=CC3C(=O)N(c4ccccc4)C(=O)C3N2Nc2ccc([N+](=O)[O-])cc2)CC1 (stereo not given in full) | t
* C=C(COC)/C(=C/C[C@@H](OC(C)=O)c1ccccc1OCCO)c1cnc2ccccc2c1 | t
